Target: sGC α1/β1 heterodimer (Homo sapiens, UniProt Q02108+Q02153)
Sequence (Q02108 whole entry): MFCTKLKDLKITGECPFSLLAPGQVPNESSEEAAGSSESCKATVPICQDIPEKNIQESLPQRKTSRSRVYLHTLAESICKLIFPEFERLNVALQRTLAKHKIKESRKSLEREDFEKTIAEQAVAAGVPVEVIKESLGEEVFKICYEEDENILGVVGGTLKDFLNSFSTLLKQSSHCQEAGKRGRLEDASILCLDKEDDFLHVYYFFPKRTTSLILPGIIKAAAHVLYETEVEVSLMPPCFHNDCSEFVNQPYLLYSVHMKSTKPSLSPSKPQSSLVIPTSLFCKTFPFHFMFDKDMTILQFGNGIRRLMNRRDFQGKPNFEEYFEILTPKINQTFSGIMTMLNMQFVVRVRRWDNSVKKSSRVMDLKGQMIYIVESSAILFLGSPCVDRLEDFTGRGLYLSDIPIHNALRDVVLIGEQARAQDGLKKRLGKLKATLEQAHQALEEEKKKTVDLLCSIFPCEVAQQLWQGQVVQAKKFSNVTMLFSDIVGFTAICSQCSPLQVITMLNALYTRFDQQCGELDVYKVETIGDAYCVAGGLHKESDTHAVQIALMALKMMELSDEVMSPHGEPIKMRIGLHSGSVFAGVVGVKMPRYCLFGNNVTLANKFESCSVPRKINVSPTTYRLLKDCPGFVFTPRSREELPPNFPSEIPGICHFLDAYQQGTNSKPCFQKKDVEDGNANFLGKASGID
Sequence (Q02153 whole entry): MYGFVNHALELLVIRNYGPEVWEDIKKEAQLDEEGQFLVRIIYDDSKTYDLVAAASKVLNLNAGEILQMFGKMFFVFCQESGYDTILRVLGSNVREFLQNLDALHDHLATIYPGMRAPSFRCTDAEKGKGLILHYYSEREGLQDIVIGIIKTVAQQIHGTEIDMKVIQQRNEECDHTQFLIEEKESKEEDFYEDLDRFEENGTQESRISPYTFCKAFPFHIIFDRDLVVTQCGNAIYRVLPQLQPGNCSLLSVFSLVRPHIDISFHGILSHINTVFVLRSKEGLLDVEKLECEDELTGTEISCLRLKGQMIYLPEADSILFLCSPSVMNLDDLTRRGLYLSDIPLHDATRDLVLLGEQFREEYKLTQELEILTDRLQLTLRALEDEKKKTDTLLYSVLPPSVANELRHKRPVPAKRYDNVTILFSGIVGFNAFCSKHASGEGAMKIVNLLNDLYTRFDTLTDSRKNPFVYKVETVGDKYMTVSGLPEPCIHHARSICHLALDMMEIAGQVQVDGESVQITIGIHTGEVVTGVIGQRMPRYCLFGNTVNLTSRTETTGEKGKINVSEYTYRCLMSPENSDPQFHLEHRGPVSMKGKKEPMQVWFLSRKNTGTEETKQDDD
Test: Cell-based sGC functional assay (CASA assay): cGMP generation in CHO-K1/sGC cells, HTRF detection
Details: inflection point (IP) of cGMP generation in CHO-K1/sGC cells, 4P fit; activity expressed as percentage of Compound A
Readout: pEC50
As a rule, pEC50 stands for the negative log10 of the concentration, concentration in M.

Look over these answered cases.
# Compound, pEC50
data = [
    ("Nc1nc(-c2cn3ccnc3c(CCCC(F)(F)F)n2)nc2c1C(c1cc(C(F)(F)F)ccn1)(C1CC1)C(=O)N2 (single isomer, unassigned) [Example 354B]", 6.77),
    ("CC1(c2ccc(F)cc2)C(=O)Nc2nc(-c3cn4cc(C(F)(F)F)nc4c(Cc4ccccc4)n3)nc(N)c21 (stereo not drawn) [Example 154A]", 7.07),
]

// next item, pEC50 requested
Given the entry Nc1nc(-c2cn3ccnc3c(CCC(F)(F)F)n2)nc2c1C(c1ccc(Cl)cc1)(C1CCC1)C(=O)N2 (single isomer, unassigned) [Example 351B] , report its measured pEC50. 6.01

The origin of these recorded values is patent US9796733B2.
